- Test details: kinetics of the reaction with dilute HCl
- Type: physicochemical
- Test conditions: illudin M
Assay endpoint: half-life

Query: Item CC1=C2C(=CC(C)(C)C2O)C(=O)[C@](C)(O)C12CC2 (stereo partly shown) [Illudin M, reference compound] has what recorded half-life?
Result: 148 min

====

Provide the reported IC50 of each item.
- Test system: HL-60 cells
- Test details: cells
- Type: cell-based, human
- Test conditions: Homo sapiens, HL-60
Number first, unit second.

Query: Which IC50 value is on record for CC1=Cc2cc(C)c(C)c(C)c2C1=O [2,5,6,7-tetramethyl-1-indenone, 2,5,6,7-Tetramethyl-1-Indenone] ?
Result: 475 nM

Query: // same read-out, input: CC1=C2C(=CC(C)(C)C2O)C(=O)[C@](C)(O)C12CC2 (some centres unmarked) [Illudin M, reference compound]
Result: 10 nM

Query: Queued: CC1=CC2=C(C)C3(CC3)[C@@](C)(O)C(=O)C2=C1 [Illudofulvene]
Result: 500 nM

Query: Same question for O=NN(CCCl)C(=O)NCCCl [BCNU] please.
Result: 23300 nM

Query: Proceed to CC1=C2C(=C[C@@](C)(CO)C2O)C(=O)[C@](C)(O)C12CC2 (some centres unmarked) [Illudin S]
Result: 10 nM
